# TEST_TARGET: Na(+)/H(+) exchange regulatory cofactor NHE-RF1 [133-300] (Homo sapiens)
# Construct: 133-300
# Sequence (O14745 whole entry): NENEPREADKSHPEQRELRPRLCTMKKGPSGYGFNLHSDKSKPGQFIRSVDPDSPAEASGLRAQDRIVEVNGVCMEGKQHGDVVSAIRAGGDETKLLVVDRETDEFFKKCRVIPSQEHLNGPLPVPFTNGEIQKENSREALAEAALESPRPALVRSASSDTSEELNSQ
# ASSAY_DETAILS: Isothermal Titration Calorimetry (ITC)
# CONDITIONS: pH 8; 25 °C
ASSAY_METRIC: pKd
Scale note: pKd = -log10(concentration in M).

Bench note: what pKd did H-QEEWETVM-OH [QEEWETVM] show? 5.01

---

# TEST_TARGET: Na(+)/H(+) exchange regulatory cofactor NHE-RF1 [1-140] (Homo sapiens)
# Construct: 1-140
# ASSAY_DETAILS: Fluorescent Polarization Competition Assay
# CONDITIONS: pH 7.4; 23 °C
ASSAY_METRIC: pKi
Remember the convention: pKi equals -log10 of concentration in molar.

I'd like to know its pKi. The substance in question is H-LQEEWETVM-OH [LQEEWETVM] 5.85

---

# TEST_TARGET: Na(+)/H(+) exchange regulatory cofactor NHE-RF1 [1-140] (Homo sapiens, UniProt O14745)
# Construct: 1-140
# ASSAY_DETAILS: Isothermal Titration Calorimetry (ITC)
# CONDITIONS: pH 8; 25 °C
ASSAY_METRIC: Kd (µM)
Could you give me the number in µM? Just the number is fine.

Enter reported Kd observed with Na(+)/H(+) exchange regulatory cofactor NHE-RF1 [1-140] (Homo sapiens, UniProt O14745) for H-QEEWETVM-OH [QEEWETVM] 11.7
